GI50 listing for selected molecules.
- Test system: NCI-H522
- ASSAY: NCI tumour cell line growth inhibition, 48 h
Calls of active or inactive are those of the source. Cut-off read from the data, not from the text of the source: active = GI50 up to about 1.1 µM and inactive = higher.

INSERT INTO assay_data (molecule, result) VALUES
  ('COc1cc(C2SCC(=O)N2c2ccccc2Cl)cc(OC)c1OC (stereo unspecified)', '65.8 µM (inactive)'),
  ('Clc1ccc(CN2CCCN(Cc3ccc(Cl)cc3)C2c2cc3ccccc3c3ccccc23)cc1', '18.9 µM (inactive)'),
  ('Cn1c2ccccc2n2c3nc4ccccc4nc3c(C#N)c12', '5.9 µM (inactive)'),
  ('O=Cc1c(O)c(C(=O)Nc2ccc3[nH]c(=O)[nH]c3c2)cc2ccccc12', '> 100 µM (inactive)'),
  ('CCOC(=O)C1=C(O)C(=O)c2ccoc2C1=O', '> 100 µM (inactive)');

[in] # query: GI50 of entry CC1=NN(c2cccc(Cl)c2)C2(C1=Cc1cccs1)C(Cl)C(=O)N2c1nc2ccccc2s1 (stereo unspecified)
[out] 18.5 µM (inactive)

---

- Test system: RPMI-8226
- ASSAY: NCI tumour cell line growth inhibition, 48 h
Active and inactive are the calls of the source. Cut-off read from the data, not from the text of the source: active = GI50 up to about 1.1 µM and inactive = higher.
Classes to choose from: active, inactive

[in] Dear all, I need the recorded test outcome for FC1(F)SC2CCCCCCCCCCC2C1(F)F (stereo not given) , thank you.
[out] inactive

[in] What do we get for CCOC(=O)c1ccc(N[C@@H]2c3cc4c(cc3C(C3=CC(=O)C(=O)C(OC)=C3)[C@H]3C(=O)OCC32)OCO4)cc1 (stereo not given in full) ?
[out] active

[in] What do you have for "CC(=O)Oc1cc2oc(=O)cc(C)c2cc1OC(C)=O" ?
[out] inactive

[in] What about this molecule? "CCCCCCNCCCNc1c2cc(OC)ccc2nc2cccc([N+](=O)[O-])c12"
[out] active

---

- Test system: CCRF-CEM
- ASSAY: NCI tumour cell line growth inhibition, 48 h
Calls of active or inactive are those of the source. No stated cut-off is given here; in the data, active = GI50 up to about 1.1 µM and inactive = higher.
Result category, one only: class 1 for active, class 0 for inactive

[in] Lab log entry: COc1ccc2c3c([nH]c2c1[N+](=O)[O-])C(C)N(Cc1ccccc1)CC3 (centres undefined) — outcome as called in the assay?
[out] class 0

---

- Test system: OVCAR-5
- ASSAY: NCI tumour cell line growth inhibition, 48 h
Active and inactive are the calls of the source. Rule as the data show it: active = GI50 up to about 1.1 µM and inactive = higher.
Answer with one of the outcomes given here: active, inactive

Previously resolved entries follow.
INSERT INTO measurements (compound, measurement_target, class_label) VALUES
  ('O=P(c1ccccc1)(c1ccccc1)N1O[C@@H](c2ccccc2)C=C[C@H]1c1ccccc1', 'OVCAR-5', 'inactive'),
  ('CCOC(=O)C(C(=O)OCC)C(NC(=O)Nc1cc(C(F)(F)F)ccc1OC)(C(F)(F)F)C(F)(F)F', 'OVCAR-5', 'inactive');

[in] Test call for this compound, please: "COc1ccc2c(c1)c1nn(CCN3CCCCC3)c3ccc4c(=O)n(CCN(C)C)c(=O)n2c4c13"
[out] active

[in] What would you report for CN1CC2=C(N=C(S)NC2c2ccc(Cl)cc2)/C(=C/c2ccc(Cl)cc2)C1 (centres undefined) ?
[out] inactive

[in] Same lookup for CCCCCCCC1(N=[N+]=[N-])C(=O)Nc2ccccc2C1=O (centres undefined) , please.
[out] inactive

[in] Also "CCCCC(=O)OC[n+]1cccc(-c2c(COC(=O)NC(C)C)c(COC(=O)NC(C)C)c3n2CCC3)c1" , if possible.
[out] inactive

---

- System: HL-60
- ASSAY: NCI tumour cell line growth inhibition, 48 h
Calls of active or inactive are those of the source. Rule as the data show it: active = GI50 up to about 1.1 µM and inactive = higher.
MEASUREMENT KIND: GI50

Field: example entries. Status: answers known.
INSERT INTO assay_data (compound, measurement_target, measurement_kind, result) VALUES
  ('NC1=NC(NCC2(CO)CCC2)=CC(OCC2(CO)CCC2)N1 (stereo unspecified)', 'HL-60', 'GI50', '78.2 µM (inactive)'),
  ('Cc1cc(C)c2nc3c(c(C(O)C4CCCCN4)c2c1)CC/C3=C\c1ccc(Cl)cc1 (stereo unspecified)', 'HL-60', 'GI50', '10.7 µM (inactive)'),
  ('CC1=C(C#N)C2C(=C(C)N1)C(N)=Nc1ccccc12 (stereo unspecified)', 'HL-60', 'GI50', '29.3 µM (inactive)'),
  ('O=C1/C(=C\c2cccc(Oc3ccccc3)c2)SC(c2ccccc2)N1c1ccccc1 (stereo unspecified)', 'HL-60', 'GI50', '46.8 µM (inactive)'),
  ('CCOC(=O)C12C(=O)CCN1CCc1ccccc1C2C (stereo unspecified)', 'HL-60', 'GI50', '> 100 µM (inactive)');

[in] Entry under review: "CCOC(=O)/C(=C\Nc1c(C)n(C)n(-c2ccccc2)c1=O)C(=O)c1ccccc1" . Reported GI50?
[out] > 100 µM (inactive)

[in] Next compound up: "Cc1c(C)c2c(c(N)c1C#N)C(=O)N(N)C2=O"
[out] > 100 µM (inactive)

[in] Now give it for "O=C1C=C(N2CCCC2)C=C(N2CCCC2)C1" too.
[out] > 100 µM (inactive)

[in] Follow-up entry: "c1ccc(C[N+]23CN4CN(CN(C4)C2)C3)cc1"
[out] 24.1 µM (inactive)

[in] Also need "CCN(CC)CCCn1c(=O)c2cccnc2n2c3c(=O)n(C)c(=O)n(C)c3nc12" , thanks.
[out] > 100 µM (inactive)

[in] What about this compound? CC(C)(C)c1cc(C#N)c2c(c1)C(=O)OC2(c1ccccc1)c1ccccc1C#N (stereo unspecified)
[out] 7.38 µM (inactive)

[in] Now try "COc1ccc(CCNC(=O)Cc2ccccc2CO)cc1OC" .
[out] > 100 µM (inactive)

[in] Repeat with CN(C)CCNC(=O)C1COc2cc(-c3cc(=O)c4ccccc4o3)ccc2O1 (stereo unspecified)
[out] 23.9 µM (inactive)

[in] Also, NC(=O)CCC(NC(=O)Cc1ccccc1)C(=O)O.NC(CCC(=O)NC(=O)Cc1ccccc1)C(=O)O (stereo unspecified) please.
[out] > 8130 µM (inactive)

[in] Field entry: "COc1ccc(-n2nnnc2C2(Nc3ccccc3)CCN(Cc3ccccc3)CC2)cc1"
[out] 2.56 µM (inactive)

[in] One more compound: "C=CCn1c(=O)c(C(=O)Nc2nc(C34CC5CC(CC(C5)C3)C4)cs2)c(O)c2ccccc21"
[out] 23.4 µM (inactive)

[in] Queued: COC1/C=C\C=C(/C)C(=O)NC2=CC(=O)C(N)=C(CC(C)CC(OC)C(O)C(C)C=C(C)C1OC(N)=O)C2=O (stereo unspecified)
[out] 0.0585 µM (active)

[in] Next record, please: C/C=C(\C)C(=O)OC1C2C(C)C(=O)OC2C(O)C(C)C2C=CC(=O)C21C (stereo unspecified)
[out] 3.24 µM (inactive)

[in] Repeat with "Cc1ccccc1C(=O)N1CCN(C(=O)c2ccccc2C)CC1"
[out] > 100 µM (inactive)

---

- System: SW-620
- ASSAY: NCI tumour cell line growth inhibition, 48 h
Active and inactive are the calls of the source. Cut-off read from the data, not from the text of the source: active = GI50 up to about 1.1 µM and inactive = higher.
MEASUREMENT KIND: GI50

INSERT INTO measurements (compound, result) VALUES
  ('Cc1c(C(=O)O)n2c(S)nnc2c2ccccc12', '> 100 µM (inactive)');

[in] Item "COC[C@@H](/N=C/c1ccc([N+](=O)[O-])cc1)C(C)C" has what recorded GI50?
[out] > 100 µM (inactive)

[in] And then "CNC(=O)OCc1cc2ccncc2c2c1[nH]c1ccccc12" , what is it?
[out] 6.01 µM (inactive)

[in] Try "Cc1cccc(CNNC(=O)c2cc[n+]([BH2-]C#N)cc2)c1" next.
[out] 34 µM (inactive)

[in] Same lookup for "CCOc1ccc2c(c1)[n+]([O-])c(-c1ccc([N+](=O)[O-])cc1)c(N)[n+]2[O-]" , please.
[out] > 100 µM (inactive)

[in] And what about the compound "N=C(N)N/N=C/c1nc2sccn2c1[N+](=O)[O-]" ?
[out] 29.4 µM (inactive)

[in] Next compound up: COc1ccccc1C1c2cc3c(cc2OC(N2CCCC2)C1C)OCO3 (configuration not stated)
[out] 18 µM (inactive)

---

- Tested on: HOP-92
- ASSAY: NCI tumour cell line growth inhibition, 48 h
Active and inactive are the calls of the source. No stated cut-off is given here; in the data, active = GI50 up to about 1.1 µM and inactive = higher.
Please state which outcome applies, choosing from active, inactive

INSERT INTO results (molecule, class_label) VALUES
  ('c1ccc(/N=C(/Nc2ccccc2)N2CCCC2)cc1', 'inactive'),
  ('COc1ccc(OC)c(N(CN2C(=O)CCC2C(=O)O)C(C)=O)c1 (stereo not drawn)', 'inactive'),
  ('CC1(c2ccc(Cl)cc2)CC(c2ccc(Cl)cc2)=C(C#N)C(=C(C#N)C#N)N1 (stereo not drawn)', 'inactive'),
  ('CC1=NN(c2cccc(Cl)c2)C2(C1=Cc1cccs1)C(Cl)C(=O)N2c1nc2ccccc2s1 (stereo not drawn)', 'inactive'),
  ('O=C(O)C1OC(n2cc(F)c(=O)[nH]c2=O)CC1O (stereo not drawn)', 'inactive');

[in] Returns: the outcome recorded for COC(=O)/C=C(/C(=O)OC)C1(C)c2cc(C(=O)OC)c(C(=O)OC)c(N)c2C(=N)N1c1ccccc1 (stereo not drawn) in this assay.
[out] inactive

Reference source for all entries: ChEMBL document CHEMBL1201862
